# Assay Info: Quantitative High-Throughput drug screen in 47 multiple myeloma cell lines against the NCATS MIPE library collection: OPM2_DSMZ cell viability assay (AID 1919872); note: nearly all actives have a fitted effect of over 30% in size
# Particulars: OPM2 myeloma viability, CellTiter-Glo ATP luminescence, 48 h; series mostly up to 45.8 µM
Results filed as inconclusive are left out. The source made the active and inactive calls. Calls come from the whole dose curve; as a rule, active = well fitted cell-killing curve with a large enough effect; inconclusive = small, poorly fitted or top-dose-only effect, or effect the other way; inactive = no such curve, though single readings can be large or run the other way.
Outcome codes: Yes for active, No for inactive

{"Compound": "C[C@@H](NCCCc1cccc(C(F)(F)F)c1)c1cccc2ccccc12", "Answer Label": "No"}
{"Compound": "C1CCC(C(CC2CCCCN2)C2CCCCC2)CC1 (stereo not given)", "Answer Label": "Yes"}
{"Compound": "CC(C)NCC(O)c1ccc(NS(C)(=O)=O)cc1 (stereo not given)", "Answer Label": "No"}
{"Compound": "CCCCc1oc2ccc(NS(C)(=O)=O)cc2c1C(=O)c1ccc(OCCCN(CCCC)CCCC)cc1", "Answer Label": "Yes"}
{"Compound": "CO[C@@]12[C@H](COC(N)=O)C3=C(C(=O)C(C)=C(N)C3=O)N1C[C@@H]1N[C@@H]12", "Answer Label": "Yes"}
{"Compound": "COCCCOc1cc(C[C@@H](C[C@H](N)[C@@H](O)C[C@H](C(=O)NCC(C)(C)C(N)=O)C(C)C)C(C)C)ccc1OC", "Answer Label": "No"}
{"Compound": "CNS(=O)(=O)CCc1ccc2[nH]cc(C3CCN(C)CC3)c2c1", "Answer Label": "No"}
{"Compound": "CCN(CC)CC#CCOC(=O)C(O)(c1ccccc1)C1CCCCC1 (stereo not given)", "Answer Label": "No"}
{"Compound": "O=C(O)c1cn(C2CC2)c2cc(N3CCNCC3)c(F)cc2c1=O", "Answer Label": "No"}
{"Compound": "N[C@@H](C(=O)N[C@@H]1C(=O)N2C(C(=O)O)=C(Cl)CS[C@H]12)c1ccccc1", "Answer Label": "No"}

====

# Assay Info: qHTS assay for small molecule activators of the nuclear factor-kappa B (NF-kB) signaling pathway (AID 651749); note: % of control where 0% means no effect
# Particulars: NF-kB-bla ME-180 cells, beta-lactamase FRET ratio, 16 h; hits give high values
Results filed as inconclusive are left out. Active and inactive are the calls of the source. The call rests on the fitted dose curve; in most records, active means well fitted activation curve with a large enough effect in the signal ratio; inconclusive means small, poorly fitted or top-dose-only effect, or a change in a side signal; inactive means flat fitted curve, though single readings scatter; the % refers to the signal ratio.
Endpoint Name: activation

{"Test Smiles": "N[C@@H](Cc1ccc(O)c(O)c1)C(=O)O", "Observed Result": "0.678% (inactive)"}
{"Test Smiles": "CC(=O)Oc1ccccc1C(=O)Nc1ncc([N+](=O)[O-])s1", "Observed Result": "-1.07% (inactive)"}
{"Test Smiles": "C[C@]12C=CC(=O)C=C1CC[C@@H]1[C@@H]2C(=O)C[C@@]2(C)[C@H]1CC[C@]2(O)C(=O)CO", "Observed Result": "1.39% (inactive)"}
{"Test Smiles": "CC[C@H](C)C(=O)O[C@H]1C[C@@H](C)C=C2C=C[C@H](C)[C@H](CC[C@@H]3C[C@@H](O)CC(=O)O3)[C@H]21", "Observed Result": "-1.44% (inactive)"}

====

# Assay Info: qHTS assay for small molecule disruptors of the mitochondrial membrane potential - 1 hr assay (AID 651754); note: nearly all actives have a fitted effect of over 35% in size
# Particulars: series mostly up to 92.2 µM
Results filed as inconclusive are left out. Calls of active or inactive are those of the source. Calls follow the shape of the full dose curve.
Outcome codes: active, inactive

{"Test Smiles": "COc1ccc2cc3[n+](cc2c1OC)CCc1cc2c(cc1-3)OCO2", "Answer Label": "active"}
{"Test Smiles": "CCc1cc(C(N)=S)ccn1", "Answer Label": "inactive"}
{"Test Smiles": "NNC(=O)c1ccncc1", "Answer Label": "inactive"}
{"Test Smiles": "CN(C)c1ccc(C(=C2C=CC(=[N+](C)C)C=C2)c2ccc(N(C)C)cc2)cc1", "Answer Label": "active"}
